Reference source: patent US20250250357A1

target: T1, human MSLN-FL-his protein (human, UniProt Q13421 296-580); assay: ELISA, coated antigen, antibody 0.002 nM
T1 construct: Made in HEK293E cells, purified on nickel column; also called hMSLN-FL-his; human MSLN full-length protein; not shown: His tag
T1 sequence (Q13421 other isoform, or with tags, fused parts or gaps): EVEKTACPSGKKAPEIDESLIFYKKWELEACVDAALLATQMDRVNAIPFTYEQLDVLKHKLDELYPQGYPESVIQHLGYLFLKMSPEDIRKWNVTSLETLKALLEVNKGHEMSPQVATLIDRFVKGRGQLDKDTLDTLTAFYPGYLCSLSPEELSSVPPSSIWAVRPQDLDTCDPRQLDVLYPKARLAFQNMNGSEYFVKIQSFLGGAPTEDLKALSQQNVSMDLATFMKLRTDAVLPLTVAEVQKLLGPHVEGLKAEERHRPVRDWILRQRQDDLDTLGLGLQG
Quantity: OD450

# Binder, Observed value
records = [
    ("S009-F7.48.1 chimeric antibody (antibody, human IgG1, kappa, V domains shown, Human-murine chimeric antibody, human IgG1/kappa constant regions) VH: QVQLQQPGTELVKPGASVKLSCKASGYTFTSYWMHWVKQRPGQGLEWIGNINPSNGGTNNNENFKSKATLTVDTSSSTAYMQLSSLTSEDSAVYYCVRNGYHGYWYFDVWGTGTTVTVSS VL: DIVMTQSQKFMSTSVGDRVSVTCKASQNVGTNVAWYQQQPGQSPKALIYSASYRYSGVPDRFTGSVSGTDFTLTISNVQSEDLAEYFCQQYNSYPLTFGGGTKLEIKR", 0.24),
]

Moving on to another binder below.
Query: Quick one: OD450 of S009-F7.65.13 chimeric antibody (antibody, human IgG1, kappa, V domains shown, Human-murine chimeric antibody, human IgG1/kappa constant regions) VH: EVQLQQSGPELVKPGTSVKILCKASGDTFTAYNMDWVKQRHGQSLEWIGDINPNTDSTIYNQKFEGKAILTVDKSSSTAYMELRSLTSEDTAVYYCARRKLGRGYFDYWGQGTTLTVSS VL: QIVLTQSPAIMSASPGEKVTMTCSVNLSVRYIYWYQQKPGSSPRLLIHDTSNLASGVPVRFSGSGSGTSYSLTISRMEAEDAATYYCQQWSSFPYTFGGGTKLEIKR ?
Response: 0.52
